- assayed.target: T1, human CD20 antigen (human, UniProt P11836 1-297)
- T1 construct: whole, on cells; also called CD20/CHO cells; CD20 on Raji cells
- T1 sequence (looked up): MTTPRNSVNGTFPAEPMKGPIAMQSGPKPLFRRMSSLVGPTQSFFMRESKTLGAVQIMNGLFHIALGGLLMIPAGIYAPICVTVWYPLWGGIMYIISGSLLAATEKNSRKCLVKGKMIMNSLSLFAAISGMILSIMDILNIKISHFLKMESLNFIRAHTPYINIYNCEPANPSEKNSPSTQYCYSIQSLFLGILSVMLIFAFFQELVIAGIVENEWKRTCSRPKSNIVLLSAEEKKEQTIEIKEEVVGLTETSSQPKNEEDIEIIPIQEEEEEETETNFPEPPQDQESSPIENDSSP
- assay.comment: CD20/CHO cell-ELISA, antibody at 3 ng/ml
Measured A492 by item
Your answer is read as A492, so omit the unit and give the number.

[[record]]
binder = "chimeric anti-CD20 monoclonal antibody c1K1402 (antibody, V domains shown, Murine variable regions fused to human immunoglobulin H chain and L chain (kappa) constant regions of vector pNOW-Ab) VH: QVQLQQPGAELVKPGASVKMSCKASGFTFTSYNMHWVKQTPGQGLEWIGGIYPGNGDTSYNQKFKGKATLTADKSSSTAYMQLSSLTSEDSAVYYCARFYYYGSMGAMDYWGQGTSVTVSS VL: QIVLSQSPAILSASPGEKVTMTCRASSSVSYMHWYQQKPGSSPKPWIYATSNLASGVPARFSGSGSGTSYSLTITRVEAEDAATYYCQQWTFNPPTFGAGTKLELK"
value_reported = 0.349

[[record]]
binder = "chimeric anti-CD20 monoclonal antibody c1K1791 (antibody, V domains shown, Murine variable regions fused to human immunoglobulin H chain and L chain (kappa) constant regions of vector pNOW-Ab) VH: QIQLVQSGPELKKPGETVKISCKASGYTFTNFGVNWVKQAPGKGLKWMGWINTYTGEPSYADDFKGRFAFSLEASANTAYLQINNLKNDDMSTYFCTRRTNYYGTSYYYAMDYWGQGTSVTVSS VL: STVMTQTPKFLLVSAGDRVTITCKASQSVSNDVAWYQQKPGQSPKVLIYFASNRYTGVPDRFTGSGYGTDFTFTINTVQAEDLAVYFCQQDYSSPLTFGAGTKLELK"
value_reported = 0.276


// switching to the query binder
Query string: // returns reported A492 for input chimeric anti-CD20 monoclonal antibody c1K1228 (antibody, V domains shown, Murine variable regions fused to human immunoglobulin H chain and L chain (kappa) constant regions of vector pNOW-Ab) VH: QVQLQQPGAELVKPGASVKVSCKASGFTFTSYNLHWVKQTPGQGLVWIGAIYPGNGDTSYNQKFRGKATLTADISSSTAYMQLSSLTSEDSAVYYCARYYYGYDAMDYWGQGTSVTVSS VL: EIILTQSPTTMAASPGEKITITCSASSSISSYYLRWYQQKPGFSPKVLIYRTSNLASGVPARFSGSGSGTSYSLTIGTMEAEDVATYYCQQGNTVPLTFGSGTKLEIK
Result string: 0.289
